- tgt: plasminogen activator inhibitor 1 (PAI-1) (Homo sapiens, UniProt P05121)
- Sequence (P05121 24-402): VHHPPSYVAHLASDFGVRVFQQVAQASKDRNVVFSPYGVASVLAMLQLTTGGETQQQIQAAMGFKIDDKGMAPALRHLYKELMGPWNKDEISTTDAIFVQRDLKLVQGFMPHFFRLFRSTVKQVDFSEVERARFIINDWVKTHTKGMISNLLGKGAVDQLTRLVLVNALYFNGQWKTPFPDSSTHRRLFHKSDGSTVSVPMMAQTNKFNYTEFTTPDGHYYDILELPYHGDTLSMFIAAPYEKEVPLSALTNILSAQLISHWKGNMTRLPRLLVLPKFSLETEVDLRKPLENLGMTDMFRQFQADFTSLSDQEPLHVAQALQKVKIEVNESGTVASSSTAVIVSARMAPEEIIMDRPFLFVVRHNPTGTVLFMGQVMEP
- measurement.protocol: Bioassay for PAI-1 inhibitors (tPA amidolysis of chromogenic substrate in presence of PAI-1)
- condition.parameters: inhibition of PAI-1 measured via tPA activity; 4.5 nM PAI-1, 7.5 nM tPA, 1 mM substrate H-D-Ile-Pro-Arg-pNA, TRIS buffer pH 8.4, OD 405 nm, 37° C. 60 minutes
assay.metric: IC50 (µM)
Numeric answer only, unit µM assumed.

Answered cases to consult:
compound	IC50 (µM)
CCC(C)C(C(=O)O)N1Cc2c(cc(O)c3c2OC2(C3)C(C)CCC3C(C)(C)C(O)CCC32C)C1=O (stereo not drawn)	66
CC1CCC2C(C)(C)C(O)CCC2(C)C12Cc1c(O)cc3c(c1O2)CN(C(Cc1ccccc1)C(=O)O)C3=O (stereo not drawn)	41

// lookup IC50 for CC(C)CC(C(=O)O)N1Cc2c(cc(O)c3c2OC2(C3)C(C)CCC3C(C)(C)C(O)CCC32C)C1=O (stereo not drawn)
35
